Target: N-formyl peptide receptor 2 (Homo sapiens, UniProt P25090)
Sequence (P25090 whole entry): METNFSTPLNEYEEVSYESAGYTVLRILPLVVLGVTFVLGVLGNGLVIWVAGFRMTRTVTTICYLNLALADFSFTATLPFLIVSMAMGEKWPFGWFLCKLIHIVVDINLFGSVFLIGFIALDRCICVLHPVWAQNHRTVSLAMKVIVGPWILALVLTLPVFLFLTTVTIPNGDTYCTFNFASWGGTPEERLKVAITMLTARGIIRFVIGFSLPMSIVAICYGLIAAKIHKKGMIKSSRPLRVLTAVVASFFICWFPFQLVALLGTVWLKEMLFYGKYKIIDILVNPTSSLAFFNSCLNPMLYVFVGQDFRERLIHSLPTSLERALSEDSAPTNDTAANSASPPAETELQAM
Assay: Agonist activity at human FPR2 receptor expressed in CHO cells assessed as forskolin/IBMX-induced intracellular cAMP level incubated for 30 mins by HTRF HiRange cAMP assay
pEC50: −log10 of the molar value.
A collection of compounds and their measured pEC50
Readout Label: pEC50

INSERT INTO results (compound, value_observed) VALUES
  ('CN[C@@H]1CCN(c2ccc(N3CCC(NC(=O)Nc4ccc(Cl)cc4)C3=O)c(F)c2F)C1 (stereo partly specified)', 8.25),
  ('O=C(Nc1ccc(C(F)(F)F)cc1F)NC1CCN(c2c(F)cc(N3CCCS3(=O)=O)cc2F)C1=O (stereo unspecified)', 8.14),
  ('CN(C)[C@@H]1CCN(c2ccc(N3CC[C@@H](NC(=O)Nc4ccc(Cl)cc4)C3=O)c(F)c2F)C1', 9.72),
  ('O=C(Nc1ccc(Cl)cc1F)NC1CCN(c2c(F)cc(N3CCCS3(=O)=O)cc2F)C1=O (stereo unspecified)', 8.36),
  ('CN(C)[C@@H]1CCN(c2ccc(N3CC[C@@H](NC(=O)Nc4ccc(C(F)(F)F)cc4)C3=O)c(F)c2F)C1', 9.68),
  ('CN(CCO)[C@@H]1CCN(c2ccc(N3CCC(NC(=O)Nc4ccc(Cl)cc4)C3=O)c(F)c2F)C1 (stereo partly specified)', 9.57);
